readout.label: melting point

Sample records with melting point:
                                   compound  readout_label         result
0  CN(Cc1cc2c3c(c1)c(=O)c(C(=O)NCc1ccc(F)cc1)cn3CC(=O)N2C)C[C@@H](O)c1ccccn1  melting point  121 to 123 °C
1  CN(Cc1cc2c3c(c1)c(=O)c(C(=O)NCc1ccc(F)cc1)cn3CC(=O)N2C)C[C@@H](O)c1cccnc1  melting point  108 to 110 °C
2  CN(Cc1cc2c3c(c1)c(=O)c(C(=O)NCc1ccc(Cl)cc1)cn3CC(=O)N2C)C[C@@H](O)c1ccco1  melting point  119 to 120 °C
3  CN(Cc1cc2c3c(c1)c(=O)c(C(=O)NCc1ccc(Cl)cc1)cn3CC(=O)N2C)CC(O)c1csc2ccccc12 (racemic)  melting point  147 to 149 °C
4  CN(Cc1cc2c3c(c1)c(=O)c(C(=O)NCc1ccc(F)cc1)cn3CC(=O)N2C)C[C@@H](O)c1ccco1  melting point  150 to 152 °C

Note to self: melting point recorded for CN(Cc1cc2c3c(c1)c(=O)c(C(=O)NCc1ccc(F)cc1)cn3CC(=O)N2C)C[C@H](O)c1cc2ccccc2o1 was 195 to 197 °C

melting point recorded for this compound, CN(Cc1cc2c3c(c1)c(=O)c(C(=O)NCc1ccc(Cl)cc1)cn3CC(=O)N2CCO)CC(O)c1cc2ccccc2o1 (racemic) , is 195 to 197 °C

Input CN(Cc1cc2c3c(c1)c(=O)c(C(=O)NCc1ccc(Cl)cc1)cn3CC(=O)N2C)C[C@@H](O)c1nccs1 . Output melting point: 125 to 130 °C

Measured values drawn from patent US20030207877A1 for this set.
